Numbers sourced from patent US20250052985A1.

- Test system: BT-474 cells
- assay_procedure: cells
- condition_description: Homo sapiens, BT-474, read-out: EC50, QPI, BT-474 cell line; QPI growth rate
pEC50: −log10 of the molar value.
Measured pEC50, listed per entry.
experimental_endpoint: pEC50

[
  {
    "compound": "CC[C@]1(O)C[C@@H]2CN(CCc3c([nH]c4ccccc34)[C@@](C(=O)OC)(c3cc4c(cc3OC)N(C)[C@H]3[C@@](O)(C(=O)OC)[C@H](OC(C)=O)[C@]5(CC)C=CCN6CC[C@]43[C@@H]65)C2)C1 [Vinblastine]",
    "numeric_value": 4.83
  },
  {
    "compound": "O=c1[nH]cc(F)c(=O)[nH]1 [5FU, 5-Fluorouracil]",
    "numeric_value": 7.00
  },
  {
    "compound": "CC(=O)c1c(C)c2cnc(Nc3ccc(N4CCNCC4)cn3)nc2n(C2CCCC2)c1=O [Palbociclib]",
    "numeric_value": 4.93
  },
  {
    "compound": "CS(=O)(=O)CCNCc1ccc(-c2ccc3ncnc(Nc4ccc(OCc5cccc(F)c5)c(Cl)c4)c3c2)o1 [Lapatinib]",
    "numeric_value": 5.80
  },
  {
    "compound": "COc1cccc2c1C(=O)c1c(O)c3c(c(O)c1C2=O)C[C@@](O)(C(=O)CO)C[C@@H]3O[C@H]1C[C@H](N)[C@H](O)[C@H](C)O1 [Doxorubicin]",
    "numeric_value": 6.30
  },
  {
    "compound": "C[C@]12CC[C@@H]3c4ccc(O)cc4C[C@@H](CCCCCCCCC[S+]([O-])CCCC(F)(F)C(F)(F)F)[C@H]3[C@@H]1CC[C@@H]2O (stereo partly drawn) [Fulvestrant]",
    "numeric_value": 4.94
  }
]

###

- Test system: MCF-7 cells
- assay_procedure: cells
- condition_description: read-out: EC50, QPI; MCF-7 cell line; QPI growth rate
pEC50: −log10 of the molar value.
experimental_endpoint: pEC50

[
  {
    "molecule": "CCC(=C(c1ccc(O)cc1)c1ccc(OCCN(C)C)cc1)c1ccccc1 [4HT, 4-hydroxy-Tamoxifen]",
    "experimental_endpoint": "pEC50",
    "numeric_value": 4.12
  },
  {
    "molecule": "N.N.O=C([O-])C1(C(=O)[O-])CCC1.[Pt+2]",
    "experimental_endpoint": "pEC50",
    "numeric_value": 4.85
  }
]

###

- System: MCF-7 cells
- assay_procedure: cells
- condition_description: Homo sapiens, MCF7, 24 h, read-out: log10(EC50), 24 h QPI, MCF-7, Hill fit (converted); EC50 in μM per Table 1
Measured EC50, listed per entry.

[
  {
    "molecule": "CS(=O)(=O)CCNCc1ccc(-c2ccc3ncnc(Nc4ccc(OCc5cccc(F)c5)c(Cl)c4)c3c2)o1",
    "EC50 (µM)": 1.92
  },
  {
    "molecule": "O=c1[nH]cc(F)c(=O)[nH]1",
    "EC50 (µM)": 8.57
  },
  {
    "molecule": "CC[C@]1(O)C[C@@H]2CN(CCc3c([nH]c4ccccc34)[C@@](C(=O)OC)(c3cc4c(cc3OC)N(C)[C@H]3[C@@](O)(C(=O)OC)[C@H](OC(C)=O)[C@]5(CC)C=CCN6CC[C@]43[C@@H]65)C2)C1",
    "EC50 (µM)": 0.00154
  },
  {
    "molecule": "C[C@]12CC[C@@H]3c4ccc(O)cc4C[C@@H](CCCCCCCCC[S+]([O-])CCCC(F)(F)C(F)(F)F)[C@H]3[C@@H]1CC[C@@H]2O (stereo partly shown)",
    "EC50 (µM)": 0.000875
  }
]
